pIC50 values for UniProt:Q92800 compiled from several publications are listed below.
Sequence (Q92800 whole entry): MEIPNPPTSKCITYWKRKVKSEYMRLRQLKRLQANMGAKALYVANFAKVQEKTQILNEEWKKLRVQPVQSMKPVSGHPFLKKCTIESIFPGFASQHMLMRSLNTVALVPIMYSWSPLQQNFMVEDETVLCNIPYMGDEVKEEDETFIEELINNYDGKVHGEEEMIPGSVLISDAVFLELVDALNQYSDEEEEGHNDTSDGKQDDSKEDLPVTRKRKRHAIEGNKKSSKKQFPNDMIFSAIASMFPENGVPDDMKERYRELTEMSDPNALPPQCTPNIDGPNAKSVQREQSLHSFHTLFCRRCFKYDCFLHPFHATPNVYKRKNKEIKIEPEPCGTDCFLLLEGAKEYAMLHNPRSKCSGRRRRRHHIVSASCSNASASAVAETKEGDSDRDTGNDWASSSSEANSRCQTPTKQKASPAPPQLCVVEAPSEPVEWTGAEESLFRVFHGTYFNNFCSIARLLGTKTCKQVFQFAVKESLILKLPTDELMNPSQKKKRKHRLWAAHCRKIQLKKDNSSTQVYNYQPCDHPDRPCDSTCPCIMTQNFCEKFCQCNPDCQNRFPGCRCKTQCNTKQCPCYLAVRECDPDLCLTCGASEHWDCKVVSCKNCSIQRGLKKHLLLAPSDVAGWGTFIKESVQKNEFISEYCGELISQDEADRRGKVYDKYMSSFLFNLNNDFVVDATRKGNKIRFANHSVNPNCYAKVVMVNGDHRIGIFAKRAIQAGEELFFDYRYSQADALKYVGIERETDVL
API: returns pIC50 as number; meaning -log10 of concentration in mol/L.

Request: Please report the measured pIC50 for `CC[C@H](C)n1cc(C)c2c(C(=O)NCc3c(C)cc(C)[nH]c3=O)cc(-c3ccc(N4CCNCC4)nc3)cc21`
Result: 7.12

Request: Please report the measured pIC50 for CCC(C)n1cc(C)c2c(C(=O)NCc3c(C)cc(C)[nH]c3=O)cc(-c3ccc(N4CCNCC4)nc3)cc21 (stereo not drawn)
Result: 6.91

Request: Please report the measured pIC50 for `O=c1cc(-c2ccc(O)cc2)oc2cc(O)c(O)c(O)c12`
Result: 5.06
